# Tested on: SF-539
# assay_summary: NCI tumour cell line growth inhibition, 48 h
The source made the active and inactive calls. No stated cut-off is given here; in the data, active = GI50 up to about 1.1 µM and inactive = higher.
Would you mind telling me the reported GI50 of each entry?

Field GI50 (system: SF-539) for entry CCCCCCCCCCCCCCCCOCC(COP(=O)([O-])OCC[n+]1ccc(N(C)C)cc1)OCC (stereo unspecified) = 13.5 µM (inactive)

For CCOC(=O)C(NC(=O)c1cccc(Cl)c1)(N1CCN(c2cc3c(cc2F)c(=O)c(C(=O)O)cn3CC)CC1)C(F)(F)F (stereo unspecified) on SF-539, measured GI50 was 15.2 µM (inactive)

Recorded GI50 for CC1(C)CN=C(Nc2ccc(Cl)cc2)S1 on SF-539 was > 100 µM (inactive)

Form field GI50 for item N#CC(=C1C=CC(=NO)C=C1)c1ccc(Cl)cc1 on SF-539: 7.33 µM (inactive)

Item O=C(/C=C/c1ccccc1)c1cc(CN2CCOCC2)c(O)c(CN2CCOCC2)c1 was tested on SF-539; the reported GI50 is 15.1 µM (inactive)

Tested on SF-539: C=C1N(C=O)C(C)(C)N(O)C1(C)C . Observed GI50: > 100 µM (inactive)

Readout GI50 for CNC(=S)N(C1CCCCC1)C1CCCCC1 , test system SF-539, was > 100 µM (inactive)

SF-539 assay, compound O=C(Nc1cccc(Cc2cccc(NC(=O)c3ccccc3)c2)c1)c1ccccc1 , recorded GI50 = 12.6 µM (inactive)

Response field GI50 (SF-539) for item CC(C)(C)OC(=O)N1CC(COS(C)(=O)=O)c2ccc(O)cc21 (stereo unspecified) : 2.06 µM (inactive)

Form field GI50 for item Cc1ccc(S(=O)(=O)N(/N=C/C=C/c2ccccc2)c2nnc(-c3ccccc3)c(-c3ccccc3)n2)cc1 on SF-539: 16.1 µM (inactive)

Record O=C1/C(=C/Cc2ccco2)N=C(c2ccccc2)N1c1nc2c(Cl)cc(Cl)cc2s1 has SF-539 GI50 equal to 23 µM (inactive)

---

# Test system: ACHN
# assay_summary: NCI tumour cell line growth inhibition, 48 h
The source made the active and inactive calls. Cut-off read from the data, not from the text of the source: active = GI50 up to about 1.1 µM and inactive = higher.
Valid outcomes are listed here; reply with one: true (active), false (inactive)

query: // outcome(item) with item = CC(C)(C)CN1[C@@H]2CCCC[C@H]2N(CC(C)(C)C)P1(=O)C(O)/C=C/c1ccccc1 (some centres undefined)
result: false

query: For Cc1cccc(C(C)(C)C)c1NC(=O)C(=O)C(C(=O)/C=C\c1ccccc1)C1OC(=O)c2ccccc21 (centres undefined) , which call appears in the assay record?
result: false

query: Returns: the outcome recorded for COC1CCC(O)C(CO)O1 (centres undefined) in this assay.
result: false

query: Hello, I am checking results. What call was entered for NC(=O)c1nnc2c(F)cccc2c1N ?
result: false

query: Which outcome was entered for the compound CC1(C)CC2(C)OC(=N)C1(C#N)C2(C#N)C#N (centres undefined) in this test?
result: false

query: Field: outcome | Entry: CN(C)c1ccc2c(=O)c3ccccc3oc2n1
result: false

query: Write down the call the test reported for this compound. Item: Cc1ccc(S(=O)(=O)N(/N=C(\N)Oc2ccc(Cl)cc2)C(=N)Oc2ccc(Cl)cc2)cc1
result: false

query: Dear colleague, could you share the recorded outcome for CC(C)CCNC(=O)c1ccc(CNC(=O)/C=C/c2cccc(Oc3ccccc3)c2)cc1 when you have a moment?
result: false

query: Tell me the assay call for O=C1O/C(=C(/Cl)c2c3ccccc3cc3ccccc23)c2ccccc21 please.
result: false

query: Identify the outcome logged in this assay for the compound shown: C/C=C/C=C/c1nc(C#N)c(N)o1
result: false

query: Called result for C=C(COC(C)=O)CC(OC(C)=O)c1ccccc1 (centres undefined)
result: false

query: // param item: Cc1ccc(-c2cc(-c3ccco3)c(C#N)c(=O)n2C2OC(OC(=O)c3ccccc3)C(OC(=O)c3ccccc3)C2OC(=O)c2ccccc2)cc1 (centres undefined) ; yields the recorded call
result: false

query: What classification did COc1ccc(C[C@H]2NC[C@H](O)[C@H]2OC(C)=O)cc1 [ANISOMYCIN] end up with in this test?
result: true

query: Short answer needed: outcome of this test for CCCCCCNC(=O)c1cc(C#Cc2cc(OC)ccc2OC)ccc1OC ?
result: false

query: Tell me the recorded outcome of this test for NS(=O)(=O)c1ccc(/N=N/c2nc3[nH]cnc(=S)c3[nH]2)cc1 .
result: false

query: Hi, do you know how Cc1cccc(C(C)C)c1NC(=O)CC1Sc2ccccc2NC1=O (centres undefined) came out in this test?
result: false

query: Per the assay record, what outcome was assigned to Cc1ccsc1/C=N/Nc1nc2ccccc2s1 ?
result: false

query: Recorded test call requested for C=C1C(=O)O[C@H]2C[C@@H]1C(=O)CC(C)CCCC(C)=CCC[C@@]2(C)O (some centres undefined)
result: false

query: What was the test verdict on COc1ccc2cc(C(=O)c3ccccc3C(=O)O)ccc2c1 ?
result: false

---

# Tested on: HCT-116
# assay_summary: NCI tumour cell line growth inhibition, 48 h
Active and inactive are the calls of the source. No stated cut-off is given here; in the data, active = GI50 up to about 1.1 µM and inactive = higher.
Pick from true (1) = active, false (0) = inactive when you respond.

query: # lookup: test call for CC(=O)O[C@]12CCCCCC1C1(O)C(O)CCC[C@H]12 (stereo not given in full)
result: false (0)

query: Fill in: this test's call for NC(=O)c1nnc2c(F)cccc2c1N is ___
result: false (0)

query: Hey, what did the test say about C[n+]1c(-c2ccc(/C=N/Nc3n[nH]c(=S)n3N/N=C/c3ccc(-c4cn5ccccc5[n+]4C)cc3)cc2)cn2ccccc21 ?
result: false (0)

query: Please let me know the test result on file for COc1cc([C@@H]2c3cc4c(c(O)c3C[C@H]3COC(=O)[C@@H]32)OCO4)cc(OC)c1OC [BETA-PELTATIN A] .
result: true (1)

query: Just curious, what result did CC(=O)N1C(c2[nH]c3ccccc3c2-c2ccccc2)CCN1c1ccccc1 (stereo not given) get here?
result: false (0)

query: Lab log entry: Clc1ccc(-c2nnc(C34CC5CC(CC(C5)C3)C4)o2)cc1 — outcome as called in the assay?
result: false (0)

query: Query: recorded result category for O=C1CC(c2ccccc2)=Nc2ccccc2N1 in this test
result: false (0)

query: For O=C1NC(=O)C(C(=O)C(=O)Nc2ccc(Cl)cc2Cl)C(=O)N1 , which call appears in the assay record?
result: false (0)

query: Hi team, can someone confirm the assay call for COC(=O)C(CNC(=O)/C=C/c1ccc(OC(C)=O)c(OC(C)=O)c1)NC(=O)/C=C/c1ccc(OC(C)=O)c(OC(C)=O)c1 (stereo not given) ?
result: false (0)

query: Hi team, can someone confirm the assay call for CSc1nc(Cl)c2c(n1)Sc1ncnn1C2O (stereo not given) ?
result: false (0)

---

# System: KM12
# assay_summary: NCI tumour cell line growth inhibition, 48 h
Active and inactive are the calls of the source. Rule as the data show it: active = GI50 up to about 1.1 µM and inactive = higher.
Output constraint: value belongs to true (1) for active, false (0) for inactive

query: Could you kindly confirm the outcome this assay logged for O=C(O)CN1CCNCCNCC1 ?
result: false (0)

query: Outcome logged for CCOC(=O)/C(=C/c1cc(OC)ccc1OC)CC(=O)O in this assay:
result: false (0)

query: Just curious, what result did COc1cc(C2C(Cl)C(=O)N2n2cnc3ccccc3c2=O)ccc1O (stereo not drawn) get here?
result: false (0)

query: Tell me the recorded outcome of this test for Nn1c(Cc2ccc([N+](=O)[O-])cc2)n[nH]c1=O .
result: false (0)

query: Write down the call the test reported for this molecule. Item: COc1ccc(/C=C2\CN(C)CC3C2=NN(c2ccccc2)C3c2ccc(OC)cc2)cc1 (stereo not drawn)
result: false (0)

query: Check the results log: what was the call for C[C@H](CCC(=O)O)[C@H]1CC[C@@]2(C)[C@@H]3C(=O)C[C@H]4C(C)(C)[C@@H](O)CC[C@]4(C)[C@H]3C(=O)C[C@]12C ?
result: false (0)

query: Please share the test call associated with CCC/N=C1\S/C(=C/c2ccc(OC)c(OC)c2)C(=O)N1c1ccccc1 .
result: false (0)

query: Per the assay record, what outcome was assigned to O=C(c1cccs1)N(C(=S)OCCOc1ccccc1)c1ccccc1 ?
result: false (0)

query: What is the recorded call for this molecule in the test? CC(NNC(=O)c1cc[n+]([BH2-]C#N)cc1)c1ccccc1F (stereo not drawn)
result: false (0)

query: State the result this test recorded for CO/C=C(/C(=O)OC)c1ccccc1[C@H]1C[C@@H]1c1ccccc1 .
result: false (0)

query: For this molecule, state the assay outcome: C[n+]1c(-c2ccc(/C=N/Nc3n[nH]c(=S)n3N/N=C/c3ccc(-c4cn5ccccc5[n+]4C)cc3)cc2)cn2ccccc21
result: false (0)

query: What is the recorded call for this molecule in the test? CCCCCCCCCCCCCCCCCC(=O)Nc1ccn(C2OC(CO)C(O)C2O)c(=O)n1 (stereo not drawn)
result: false (0)

query: Name the outcome recorded for C[n+]1c(-c2ccc(/C=N\NC(=O)c3ccc(C(=O)N/N=C/c4ccc(-c5cn6ccsc6[n+]5C)cc4)cc3)cc2)cn2ccsc21 in the assay.
result: false (0)

query: Check the results log: what was the call for COc1ccc(/C=c2/sc3n(c2=O)NC2(CCC(C)CC2)NN=3)cc1 (stereo not drawn) ?
result: false (0)

query: Please indicate how the test categorized CCOC(=O)c1nnsc1NC(=O)NCCCCCCn1c(=O)n(CCCCCCNC(=O)Nc2snnc2C(=O)OCC)c(=O)n(CCCCCCNC(=O)Nc2snnc2C(=O)OCC)c1=O .
result: false (0)

query: State the result this test recorded for Cc1ccsc1/C=N/Nc1nc2ccccc2s1 .
result: false (0)

query: What is the recorded call for this molecule in the test? C#Cc1cccc(NC(=O)/C=C\C(=O)O)c1
result: false (0)

query: Could you please tell me the result logged for [O-][S@@+]1c2ccc3ccccc3c2N[C@@H]2[C@H]1[C@H]1C=C[C@@H]2C1 in this assay?
result: false (0)

query: Any idea what this test logged for COC(=O)/C(=N\NC(=O)C[N+](C)(C)C)C(C(=O)OC)C(=O)C(=O)Nc1ccccc1C(N)=O (stereo not drawn) ?
result: false (0)

query: For Cc1c(Cl)ccc2c1NC(=O)C2(O)CC(=O)c1cccc2ccccc12 (stereo not drawn) , which call appears in the assay record?
result: false (0)

query: Entry CN(C)c1ccc(/C=C2\Oc3cc(O)ccc3C2=O)cc1 : call = ?
result: false (0)

query: So what was the verdict on Cc1cccc2c(N)c3cccc(C(=O)NCC[N+](C)(C)Cc4ccc(S(C)(=O)=O)cc4)c3nc12 in this test?
result: false (0)

query: Could you check what this test reported for CC(C)(C)c1cc(C2COC(=O)COCC(=O)OCCOCCOCCO2)cc(C(C)(C)C)c1O (stereo not drawn) ?
result: false (0)

query: Per the records of this test, what outcome belongs to COc1cc([C@@H]2c3cc4c(c(O)c3C[C@H]3COC(=O)[C@@H]32)OCO4)cc(OC)c1OC ?
result: true (1)

query: // param item: CC(C)(C)[Si](C)(C)OCC1OC(n2cnc3c(N)ncnc32)CC1O (stereo not drawn) ; yields the recorded call
result: false (0)

query: For CN1C/C(=C\c2cccs2)C(O)/C(=C/c2cccs2)C1 (stereo not drawn) , what call appears in the results of this test?
result: false (0)

query: For CC(=O)O[C@@H]1CO[C@H]2O[C@H]3[C@@H](C(C=O)=C[C@H](O)[C@@H]4C5=C(C(C)C)CC[C@]5(C)CC[C@@]34C)[C@@]2(O)C1=O , which call appears in the assay record?
result: true (1)

query: Identify the outcome logged in this assay for the molecule shown: Fc1cccc(F)c1C1SCc2nc3cc4ccccc4cc3n21 (stereo not drawn)
result: false (0)

query: Can you look up the reported call for O=c1ccc2nc3cc(Br)ccc3sc-2c1 for me?
result: false (0)

query: Status in this test for O=C(O)c1nc2ccccc2nc1NCc1ccc(F)cc1 ?
result: false (0)

query: What did the test return for Cc1cc(C)c(C)c(-n2[nH]c(=O)n(C)c2=O)c1C ?
result: false (0)

query: Field: outcome | Entry: CCCCCCCCCCCCCCCCOCC(COP(=O)([O-])OCC[n+]1ccc(N(C)C)cc1)OCC (stereo not drawn)
result: true (1)

query: Hey, what did the test say about O=Nc1c(-c2c(O)[nH]c3ccccc23)[nH]c2ccccc12 ?
result: true (1)

query: What call does the record list for CC(C)CCNC(=O)c1ccc(CNC(=O)/C=C/c2cccc(Oc3ccccc3)c2)cc1 ?
result: false (0)

query: Tell me the assay call for CCCCCCCCC/C=C1/CC(CO)(COC(=O)C2CCCCC2)OC1=O (stereo not drawn) please.
result: false (0)

query: Hey, what did the test say about CC(C)(C)CN1[C@@H]2CCCC[C@H]2N(CC(C)(C)C)P1(=O)C(O)/C=C/c1ccccc1 (stereo partly drawn) ?
result: false (0)

query: Recorded test outcome, item C[C@@]1(CCCCCCCCCCc2ccccc2)C[C@@]2(C)OC(=O)C[C@H]2OO1
result: false (0)

query: # lookup: test call for Cc1nn2c(C(=O)N/N=C/c3ccc([N+](=O)[O-])cc3)c(C)nc2s1
result: false (0)
